Source listed as ChEMBL document CHEMBL1961873.

- assaySystem: Protein-tyrosine kinase 6 (Homo sapiens)
- experimentalSetup: at 1 µM
- Description: GSK_PKIS: BRK mean inhibition at 1 uM [Nanosyn]
measureName: inhibition (%)
One number for each entry, in %.

CN(c1ccc(NC(=O)Nc2c(Cl)cccc2Cl)cc1)c1ccnc(Nc2cccc(CS(C)(=O)=O)c2)n1	44
COc1cc(Nc2ncc3c(C)nc(-c4cccc(Oc5ccccc5)c4)n3n2)cc(OC)c1OC	1.89
COc1ccc2cc(-c3c(-c4ccncc4)nc(-c4ccc(S(C)(=O)=O)cc4C)n3C)ccc2c1	85
N#Cc1ccc(Oc2nccc(-c3c(-c4ccc(F)cc4)ncn3C3CCNCC3)n2)cc1	4.81
c1ccc(-c2n[nH]cc2-c2ccnc(-c3ccc(OCCN4CCOCC4)cc3)c2)nc1	-2.62
CCN(CC)Cc1ccc(Nc2nccc(-c3cnn4ncccc34)n2)cc1	15.7
Fc1ccc(-c2ncn(C3CCNCC3)c2-c2ccnc(Oc3ccc4c(c3)OCO4)n2)cc1	5.5
CCS(=O)(=O)c1ccc(OC)c(Nc2ncc(-c3cccc(-c4ccccc4F)c3)o2)c1	10.8

For every item in the list below, what is its measured inhibition?
1. NS(=O)(=O)c1ccc(N/N=C2\C(=O)Nc3ccc(C(=O)NCCCn4ccnc4)cc32)cc1
2. COc1cc(Nc2ncc3c(C)nc(-c4cccc(C(F)(F)F)c4)n3n2)cc(OC)c1OC
3. NC(=O)c1cc(-c2ccc(F)cc2)cc(-c2ccncc2)c1N

Result:
[6.65, 5.36, 5.71]

For every item in the list below, what is its measured inhibition?
1. CS(=O)(=O)CCNCc1cc(-c2cc3c(Nc4ccc(OCc5cccc(F)c5)c(Cl)c4)ncnc3s2)cs1
2. O=C1NC(=O)C(c2cccc(Cl)c2)=C1Nc1ccc(Cl)c(C(=O)O)c1
3. O=C1Nc2ccc(I)cc2C1=Cc1cc(Br)c(O)c(Br)c1
4. Cc1ccc(NC(=O)c2ccoc2)cc1-c1ccc(C(=O)NCC2CC2)cc1
5. O=C(Nc1ccc(Oc2ccc3[nH]c(NC(=O)c4ccccc4)nc3c2)cc1)Nc1cc(C(F)(F)F)ccc1F
6. COc1cc2ncn(-c3cc(OCc4ccccc4C(F)(F)F)c(C(C)=O)s3)c2cc1OC
7. Cc1ccc(C(=O)NC2CCC2)cc1-c1ccc(C(=O)NCC2CC2)cc1

Result:
5.98
5.12
6.68
4.58
8.39
3.98
1.95

For every item in the list below, what is its measured inhibition?
1. O=C1Nc2ccccc2/C1=C/Nc1ccc(-n2cncn2)cc1
2. CCc1cccc(CC)c1/C=C/c1cncc(C(=O)NC)c1
3. COc1ccc(C2=C(N3CCc4ccccc43)C(=O)NC2=O)cc1
4. CN1CCN(CCCNc2nc3ccc(Oc4ccc(NC(=O)Nc5cc(C(F)(F)F)ccc5F)cc4)cc3[nH]2)CC1

Result:
1: 6; 2: 3.98; 3: 5.72; 4: 1.35

For every item in the list below, what is its measured inhibition?
1. Fc1ccc(-c2nc3n(c2-c2ccncc2)CCS3)cc1
2. COc1ccc2ncn(-c3cc(O[C@H](C)c4ccccc4Cl)c(C(N)=O)s3)c2c1
3. Fc1ccc(-c2ncn(CCCN3CCOCC3)c2-c2ccncc2)cc1
4. Clc1ccc(CNc2nccc(-c3cnn4ncccc34)n2)cc1
5. C[C@@H](Oc1cc(-n2cnc3ccc(OC4CCN(C)CC4)cc32)sc1C(N)=O)c1ccccc1Cl

Result:
4.07
4.71
-0.48
3.52
3.15

For every item in the list below, what is its measured inhibition?
1. O=C(Nc1n[nH]c2nc(-c3ccco3)ccc12)C1CC1
2. COc1ccc(-c2ccc3c(NC(=O)C4CC4)n[nH]c3n2)cc1
3. COc1cccc(/C=N/Nc2ncnc3c2cnn3-c2cccc(OC)c2)c1
4. CNC(=O)c1cncc(/C=C/c2c(C)cccc2C)c1
5. CCC(=O)Nc1ccc(C)c(-c2ccc(C(=O)NCC3CC3)cc2)c1
6. CS(=O)(=O)CCNCc1ccc(-c2ccc3ncnc(Nc4ccc(OCc5ccccc5)c(Br)c4)c3c2)o1
7. COc1cc2ncn(-c3cc(OCc4cccs4)c(C(N)=O)s3)c2cc1OC
8. COC(=O)Nc1nc2ccc(Sc3ccc(NC(=O)Nc4cc(C(F)(F)F)ccc4F)cc3)cc2[nH]1

Result:
1. 1.59
2. 2.88
3. 5.61
4. 61.9
5. 5.22
6. 11.8
7. 7.01
8. 1.4

For every item in the list below, what is its measured inhibition?
1. c1ccc(Oc2ccc(Nc3ncc(-c4ccccc4)o3)cc2)cc1
2. NC(=O)c1ccc(Oc2nccc(-c3c(-c4ccc(F)cc4)ncn3C3CCNCC3)n2)cc1
3. NC(=O)c1cc(-c2ccncc2)cc(-c2ccccc2)c1N
4. O=C(Nc1n[nH]c2cc(-c3ccccc3)ccc12)C1CC1
5. NS(=O)(=O)c1ccc(N/N=C2\C(=O)Nc3ccc(-c4cnco4)cc32)cc1

Result:
[-0.31, 6.07, 36.9, 6.62, 4.99]
